Tested on: NF-κB
Experiment: NF-κB assay: THP1-NF-κB-LUC cells, LPS-stimulated secreted luciferase
Type: cell-based
Conditions: THP1-NF-κB-LUC cells; compounds 2 hours before LPS (10 ng/mL) for 18 hours; secreted luciferase; read-out: IC50 (NF-κB assay)
For each record, write down the corresponding IC50.

Q: Checklist item: IC50 tested on NF-κB, entry CCC1Oc2cc(S(=O)(=O)Nc3cccc(Cl)c3)c(Br)cc2NC1=O (stereo not drawn) , value?
Ans: 0.1 to 1 µM

Q: Checklist item: IC50 tested on NF-κB, entry CS(=O)(=O)c1cc2c(c(S(=O)(=O)Nc3ccc(F)cc3)c1)OCC(=O)N2 , value?
Ans: < 0.1 µM

Q: Checklist item: IC50 tested on NF-κB, entry CC1Oc2cc(S(=O)(=O)N3CCCC3)c(Cl)cc2NC1=O (stereo not drawn) , value?
Ans: > 10 µM

Q: Checklist item: IC50 tested on NF-κB, entry CC(C)CC1Oc2c(cc(Br)cc2S(=O)(=O)Nc2ccc(F)cc2)NC1=O (stereo not drawn) , value?
Ans: < 0.1 µM

Q: Checklist item: IC50 tested on NF-κB, entry O=c1c(S(=O)(=O)c2ccc(F)c(F)c2)c[nH]c2c(Cl)ccc(F)c12 , value?
Ans: 0.1 to 1 µM

Q: Checklist item: IC50 tested on NF-κB, entry COc1cc(NS(=O)(=O)c2cc3c(cc2C)NC(=O)CO3)cc(OC)c1OC , value?
Ans: > 10 µM

Q: Checklist item: IC50 tested on NF-κB, entry COc1ccc(OC)c(N(C)S(=O)(=O)c2cc3c(cc2C)NC(=O)CO3)c1 , value?
Ans: > 10 µM

Q: Checklist item: IC50 tested on NF-κB, entry O=C1COc2cc(S(=O)(=O)NC3CCC(O)CC3)c(Br)cc2N1 (stereo not drawn) , value?
Ans: > 10 µM

Q: Checklist item: IC50 tested on NF-κB, entry CC1Oc2c(cc(Cl)cc2S(=O)(=O)Nc2cccc(F)c2)NC1=O (stereo not drawn) , value?
Ans: < 0.1 µM
